The reported numbers originate from PubChem BioAssay (NCI).

- Tested on: DU-145 prostate
- METHOD: NCI tumour cell line growth inhibition, 48 h
OBSERVATION TYPE: GI50

Task: Fill blank: measured GI50 of the molecule CC(C)(C)OC(=O)CC(NC(=O)OCc1ccccc1)NC(=O)OC(C)(C)C (stereo unspecified) is ____.
Result: 72.3 mg/L

Task: Reported GI50 for O=C1c2ccccc2-c2c1c1c(O)cccc1n2Cc1ccccc1 : what is it?
Result: 11.9 µM

Task: // GI50 lookup, key: O=C1[C@H](Cc2ccc(O)cc2)N2C(=O)CCN(C(=O)NCc3ccccc3)[C@H]2CN1Cc1cccc2ccccc12
Result: 4.55 µM

Task: Name the recorded GI50 for O=C1Nc2ccc(Cl)cc2/C1=N/c1nc(-c2ccc(Cl)cc2)cs1 .
Result: 1.42 µM

Task: Fill in the blank: the reported GI50 of O=[N+]([O-])c1ccc(N/N=C\c2cc(Br)ccc2O)nc1 is ____.
Result: 0.912 µM

Task: Param item = Nc1cc(C(F)(F)F)c(-c2nc(N3CCOCC3)nc(N3CCOCC3)n2)cn1 ; retrieve measured GI50.
Result: 0.475 µM
